The origin of these recorded values is patent EP4692059A1.

protocol.text: Particle size, PdI and zeta potential of mRNA-encapsulating LNPs by dynamic light scattering (Experimental Example 2)
Format: physicochemical
assay.setup: mRNA-encapsulating LNP, cationic lipid:DOPC:Chol = 50:10:40 (molar ratio) + DMG-PEG2k about 1 mol; Zetasizer Nano
experimental.endpoint: zeta potential (mV)
Give just the numeric value; mV need not be written.

- structure.notation: "CCCCCC/C=C\\COC(=O)CCCC(=O)Oc1ccc(CC(=O)OCCC2CCN(CCSSCCN3CCC(CCOC(=O)Cc4ccc(OC(=O)CCCC(=O)OC/C=C\\CCCCCC)cc4)CC3)CC2)cc1"
  unit.label: "mV"
  assay.value: -2.30
- structure.notation: "CCCCCCCC/C=C\\CCCCCCCC(=O)Oc1ccc(CC(=O)OCCC2CCN(CCSSCCN3CCC(CCOC(=O)Cc4ccc(OC(=O)CCCC(=O)OC[C@H](COC(=O)CCCCC)OC(=O)CCCCC)cc4)CC3)CC2)cc1"
  unit.label: "mV"
  assay.value: -3.63

// below: zeta potential (mV) requested for another molecule
Problem: Determine from records and report zeta potential (mV) for CCCCCCC#CCCOC(=O)CCCC(=O)Oc1ccc(CC(=O)OCCC2CCN(CCSSCCN3CCC(CCOC(=O)Cc4ccc(OC(=O)CCCCCCCC(=O)OC(CCCCCCCC)CCCCCCCC)cc4)CC3)CC2)cc1
Result: -4.31
